Listing of pIC50 toward Autotaxin (Homo sapiens, UniProt Q13822), each taken from a published source.
pIC50: −log10 of the molar value.

Examples with their reported pIC50 follow.
>>> test_value("CC[C@H]1CC[C@@H](Oc2ccc3cc(C(C)N4CCC[C@H](CC(=O)O)C4)ccc3c2C(F)(F)F)CC1 (some centres unmarked)")
"≥ 7.00"
>>> test_value("CCCCC1CN(CC(=O)NCCc2cn[nH]c2)C(=O)c2cc(-c3ccc(Cl)cc3)nn21 (centres unmarked)")
"6.00 to 7.00"

(Q) Kindly indicate its recorded pIC50. Item: `CC(C)Oc1cc(CNc2ncc(C(=O)N3CCC34COC4)cn2)cc(OC(F)(F)F)c1`
(A) > 7.00

(Q) Provide one value: measured pIC50 of O=C1NC(=O)N2Cc3c(c4cccnc4n3Cc3ccc(F)cc3)CC12 (centres unmarked)
(A) > 6.30

(Q) Report measured pIC50; entry is CCCCC1CN(c2ccc(CC(=O)O)cc2)C(=O)c2cc(-c3ccc(Cl)cc3)nn21 (centres unmarked)
(A) ≤ 6.00

* * *

A compilation of IC50 values for Autotaxin (Homo sapiens, UniProt Q13822) from the published literature.

Take a look at these entries with their results.
>>> test_value("O=C(c1cnc(NC2Cc3ccc(C4CC4)cc3C2)nc1)N1CCC12COC2 (stereo not shown)")
"< 100 nM"
>>> test_value("O=C(c1cnc(NCc2cc(Br)cc(OC(F)(F)F)c2)nc1)N1CCC12COC2")
"< 100 nM"
>>> test_value("CCCCCC1CN(Cc2ccc(OCCCN(C)C)cc2)C(=O)c2cc(-c3ccc(Cl)cc3)nn21 (stereo not shown)")
"≥ 1000 nM"
>>> test_value("Cc1c(Sc2cccc(C(=O)O)c2)c2ccc(Cl)c(F)c2n1CC(=O)N1CC2C(C1)C2C(N)=O (stereo not shown)")
"≤ 500 nM"
>>> test_value("O=C(O)C1CC2CCC(C1)C2NCc1ccc2c(C(F)(F)F)c(O[C@H]3CC[C@@H](C(F)(F)F)CC3)ccc2c1 (single isomer, unassigned; enantiomer 1)")
"≤ 250 nM"
>>> test_value("O=C(c1cnc(NCc2cc(OC(F)(F)F)cc(C3CC3)c2)nc1)N1CC2(COC2)C1")
"100 to 1000 nM"
>>> test_value("Cc1cccc(C(=O)N[C@@H](C(=O)N2CCC3(CC2)C(=O)N(C)CN3c2cccc(B(O)O)c2)C(C)C)c1F")
"≥ 1000 nM"
>>> test_value("CC1(C)c2c(n(Cc3ccc(F)cc3)c3ccccc23)CN2C(=O)N(CCC(=O)O)C(=O)C21 (stereo not shown)")
"< 500 nM"
>>> test_value("Cc1c(Sc2cccc(C(=O)O)c2)c2ccc(Cl)c(F)c2n1CC(=O)N1CC2(CNC(=O)C2)C1")
"≤ 500 nM"
>>> test_value("CCCCC1CN(CCOc2ccccc2)C(=O)c2cc(-c3ccc(Cl)cc3)nn21 (stereo not shown)")
"100 to 1000 nM"

(Q) Return reported IC50 for target or system Autotaxin (Homo sapiens, UniProt Q13822), item `Cc1c(Sc2cccc(C(=O)O)n2)c2ccc(Cl)c(F)c2n1CC(=O)N1CC2(CC2)c2ccccc21` .
(A) ≤ 500 nM

(Q) # return IC50 for COC1CC(CN2C(=O)N(C)C(=O)C23CCN(C(=O)[C@H](NC(=O)c2cc(C(F)(F)F)ccc2F)C(C)C)CC3)C1 (stereo partly shown) , test system: Autotaxin (Homo sapiens, UniProt Q13822)
(A) ≥ 1000 nM

(Q) Consider the compound `Cc1cc(CN2C(=O)N(C)C(=O)C23CCN(C(=O)[C@H](NC(=O)c2cc(C(F)(F)F)ccc2F)C(C)C)CC3)ccn1` tested on Autotaxin (Homo sapiens, UniProt Q13822); state its IC50.
(A) 500 to 1000 nM

* * *

pIC50: −log10 of the molar value.
Across several studies, compounds have been characterized by their pIC50 on Autotaxin (Homo sapiens); a selection follows.

# example entries with known answers
>>> test_value("CCc1nc2sc(N3CC4(CN(CC(=O)N5CC(O)C5)C4)C3)nn2c1N(C)c1nc(-c2ccc(F)cc2)c(C#N)s1")
"6.30 to 7.00"
>>> test_value("CCCCCC1CN(CC(=O)N2CCCC(O)C2)C(=O)c2cc(-c3ccc(Cl)cc3)nn21 (stereo not drawn)")
"6.00 to 7.00"

With those in mind, consider the next compound.
(Q) Specify the recorded pIC50 for `CCc1ccc(F)c(C(=O)N[C@@H](C(=O)N2CCC(Oc3ccc(S(C)(=O)=O)cc3)(C(=O)N(C)C)CC2)C(C)C)c1` , system: Autotaxin (Homo sapiens).
(A) 5.30 to 6.30

* * *

Compiled notes: published IC50 values involving Autotaxin (Homo sapiens, UniProt Q13822).

>>> test_value("O=C(O)CN1CC(=O)N2Cc3c(c4ccccc4n3Cc3ccc(F)cc3)CC2C1=O (racemic)")
"< 500 nM"
>>> test_value("CCc1ccc(F)c(C(=O)N[C@@H](C(=O)N2CCC3(CC2)C(=O)N(C)CN3c2ccccc2)[C@H](C)OC)c1")
"< 500 nM"

(Q) Tell me IC50 of CCOC(=O)CN1CC(Cc2ccccc2)n2nc(-c3ccc(Cl)cc3)cc2C1=O (stereo not shown) when tested on Autotaxin (Homo sapiens, UniProt Q13822).
(A) 100 to 1000 nM

(Q) Given CCCCC1CN(CC(=O)NCCC(=O)N(C)C)C(=O)c2cc(-c3ccc(Cl)cc3)nn21 (stereo not shown) , report its IC50 on Autotaxin (Homo sapiens, UniProt Q13822).
(A) 100 to 1000 nM

* * *

pIC50: −log10 of the molar value.
Compiled literature pIC50, tested on UniProt Q13822.

>>> test_value("CC(=O)NC1=C(c2cc3n(n2)[C@@H](C)CN(Cc2ccc(C#N)cc2)C3=O)C(=O)CC(C(F)(F)F)C1 (stereo partly drawn)")
"7.00 to 8.00"
>>> test_value("CCCCC1CN(Cc2ncco2)C(=O)c2cc(-c3ccc(Cl)cc3)nn21 (stereo not drawn)")
"6.00 to 7.00"
>>> test_value("CCCCC1CN(CC(=O)N2[C@H](C)COC[C@@H]2C)C(=O)c2cc(-c3ccc(Cl)cc3)nn21 (stereo partly drawn)")
"6.00 to 7.00"
>>> test_value("CC(C)[C@@H](NC(=O)c1cc(C(F)(F)F)ccc1F)C(=O)N1CCC2(CC1)C(=O)N(C)C(=O)N2C")
"≤ 6.00"
>>> test_value("C[C@H]1CN(Cc2ccc(C#N)cc2)C(=O)c2cc(-c3ccc(Cl)cc3Nc3nccs3)nn21")
"≤ 6.00"

(Q) Answer with pIC50 of `CC[C@H](c1ccc2c(C(F)F)c(O[C@H]3CC[C@@H](C)CC3)ccc2c1)N1CCC[C@H](CC(=O)O)C1` measured for UniProt Q13822.
(A) ≥ 7.00

(Q) State pIC50 (UniProt Q13822) of CCCCCC1CN(CC(=O)N2CCC(CO)CC2)C(=O)c2cc(-c3ccc(Cl)cc3)nn21 (stereo not drawn) .
(A) 6.00 to 7.00

(Q) Specify the recorded pIC50 for CCCCCC1CN(CC(=O)N2CCCC(C(=O)O)C2)C(=O)c2cc(-c3ccc(Cl)cc3)nn21 (stereo not drawn) , system: UniProt Q13822.
(A) 7.00 to 8.00

* * *

Ok so here's the combined literature set: IC50 for Autotaxin (Homo sapiens).

Below are worked cases with known answers.
>>> test_value("FC(F)(F)c1c(O[C@H]2CC[C@@H](C(F)(F)F)CC2)ccc2cc(CN3CCC(c4nn[nH]n4)CC3)ccc12")
"≤ 250 nM"
>>> test_value("CCOCC1CNC(=O)c2cc(-c3ccc(Cl)cc3)nn21 (stereo not drawn)")
"≥ 1000 nM"
>>> test_value("CCCCCC1CN(CC(=O)N(C)c2ccc(C(=O)O)cc2)C(=O)c2cc(-c3ccc(Cl)cc3)nn21 (stereo not drawn)")
"≥ 1000 nM"
>>> test_value("CCc1ccc(F)c(C(=O)N[C@@H](C(=O)N2CCC3(CC2)C(=O)N(C)CN3c2ccc3oc(=O)n(C)c3c2)C(C)C)c1")
"< 500 nM"
>>> test_value("Cc1ccc(C(C)C)c(OCc2n[nH]c(=O)n2C)c1")
"19 nM"

(Q) Given the molecule `CCc1nc2sc(N3CCN(CC(=O)N4CC(O)C4)[C@H](C(=O)OC)C3)nn2c1N(C)c1nc(-c2ccc(F)cc2)c(C#N)s1` , write its reported IC50.
(A) 0.01 to 100 nM

* * *

pIC50: −log10 of the molar value.
Ok so here's the combined literature set: pIC50 for Autotaxin (Homo sapiens).

>>> test_value("O=C(c1cnc(NCc2cc(OC(F)(F)F)cc(C3CC3)c2)nc1)N1CCC1")
"> 7.00"
>>> test_value("O=C(O)c1cccc(Sc2c(C3CC3)n(-c3cn[nH]c3)c3c(F)c(Cl)ccc23)c1F")
"> 6.30"
>>> test_value("Cc1c(Sc2cccc(C(=O)O)c2)c2ccc(Cl)c(F)c2n1CC(=O)N1CC(N2CCC(F)(F)C2)C1")
"≥ 6.30"

(Q) Specify pIC50 for `Cc1cccc(C(=O)N[C@@H](C(=O)N2CCC(C)(Nc3cccc(C#N)c3)CC2)C(C)C)c1F` and stop.
(A) 5.00 to 5.30

(Q) Query pIC50 for CCCCCC1CN(Cc2ccc(OC(C)=O)cc2)C(=O)c2cc(-c3ccc(Cl)cc3)nn21 (stereo not shown)
(A) ≤ 6.00

(Q) Answer with reported pIC50 of `COc1ccc(Cn2c3c(c4ccccc42)C[C@H]2C(=O)N(CCCC(=O)O)C(=O)N2C3)cn1`
(A) > 6.30

(Q) Provide one value: measured pIC50 of `CC(C)[C@@H](NC(=O)c1cc(C(F)(F)F)ccc1F)C(=O)N1CCC2(CC1)C(=O)N(C)CN2c1ccc(-c2nn[nH]n2)cc1`
(A) > 6.30

(Q) Answer with the recorded pIC50 of `CCCCC[C@@H]1CN(CC(=O)N2CCC(C(=O)O)CC2)C(=O)c2cc(-c3ccc(Cl)cc3)nn21` only.
(A) 7.00 to 8.00

(Q) Annotate the molecule `Cc1c(Sc2cccc(C(=O)O)c2)c2ccc(Cl)c(F)c2n1CC(=O)Nc1cnoc1` with its measured pIC50.
(A) 5.52 to 6.30

(Q) Quote pIC50 reported for `CC(C)c1cc(CNc2ncc(C(=O)N3CCC34CN(S(C)(=O)=O)C4)cn2)cc(OC(F)(F)F)c1` please.
(A) > 7.00

(Q) Please give measured pIC50 of the following entry: O=C(c1cnc(NC2Cc3ccc(Cl)cc3C2)nc1)N1CCCC12COC2 (stereo not shown)
(A) > 7.00

(Q) Tell me its pIC50 given `CC(C)[C@@H](NC(=O)c1cc(Cc2ccccc2)ccc1F)C(=O)N1CCC(C)(Nc2ccc(S(C)(=O)=O)cc2)CC1` as the entry.
(A) 5.30 to 6.30

(Q) Determine its reported pIC50: `CC(=O)Nc1cc(Cl)cnc1-c1cc2n(n1)[C@@H](C)CN(Cc1ccc(C#N)cc1)C2=O`
(A) 7.00 to 8.00

(Q) Could you please provide reported pIC50 for `CCn1cc(-n2c(Cl)c(Sc3cccc(C(=O)O)c3F)c3ccc(Cl)c(F)c32)cn1` ? Thanks!
(A) > 6.30

(Q) Indicate the recorded pIC50 value for this molecule: `CC(=O)Nc1cc(Cl)c(F)cc1-c1cc2n(n1)[C@@H](C)CN(Cc1ccc(C#N)cc1)C2=O`
(A) > 8.00

(Q) Give reported pIC50 value for `O=C(O)CCCN1C(=O)[C@H]2Cc3c(n(Cc4ccc(F)cc4)c4ccccc34)CN2C1=O`
(A) > 6.30
